Source: paper PMC10397247

# ASSAY TARGET: T1, P6-AA-1HGe-D
# T1 chain: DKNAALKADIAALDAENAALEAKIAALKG
# EXPERIMENTAL DETAILS: two-hybrid library CCmax;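 further: natural log of median RNA to DNA barcode read ratio; higher means stronger binding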
# ASSAY CONDITIONS: mean of both orientations
ENDPOINT: interaction score

| BINDER | interaction score |
| --- | --- |
| DENAALEAQIAALQAKNAALKAEIAALEG [P5-AA-1HGe-Q] | 1.58 |
| DENAALEAWIAALWAKNAALKAEIAALEG [P5-AA-1HGe-W] | 0.67 |

1 = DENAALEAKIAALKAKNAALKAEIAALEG [4H1401-AA]
2 = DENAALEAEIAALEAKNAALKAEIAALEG [O5-AA]
Exercise: Could you check which of 1 and 2 has a smaller value for interaction score? I would appreciate it if you answered with the label of your choice.
Solution: 2
